Hi there, I'd appreciate the recorded log10 of IC50 for every entry that follows.
Biological target: UniProt P14902
Sequence (P14902 whole entry): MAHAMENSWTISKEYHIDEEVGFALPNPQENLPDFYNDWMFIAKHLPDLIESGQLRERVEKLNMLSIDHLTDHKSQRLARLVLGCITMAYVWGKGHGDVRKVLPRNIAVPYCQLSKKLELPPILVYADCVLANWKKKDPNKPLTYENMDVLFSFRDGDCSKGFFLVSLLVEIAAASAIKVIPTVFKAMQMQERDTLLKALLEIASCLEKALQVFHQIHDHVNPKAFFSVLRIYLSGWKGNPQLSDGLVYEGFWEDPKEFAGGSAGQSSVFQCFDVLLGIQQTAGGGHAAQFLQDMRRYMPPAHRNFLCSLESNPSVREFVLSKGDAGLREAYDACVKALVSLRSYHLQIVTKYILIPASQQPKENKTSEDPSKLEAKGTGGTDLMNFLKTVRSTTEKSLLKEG
Assay: Inhibition of recombinant human IDO1 assessed as reduction in conversion of L-tryptophan to kynurenine by methylene blue dye based spectrometric method
The base-10 logarithm of IC50, taken with IC50 in nM, is what appears here.

Below, 3 compounds whose answers are already recorded.
> print(dat)
                                   compound  measured.target  measured.result
1           O=C1N=c2ccccc2=C1NNc1cccc(Cl)c1   UniProt P14902             3.18
2  O=C(N[C@@H](CC1C(=O)Nc2ccccc21)C(=O)O)c1ccccc1 (mixture of isomers)   UniProt P14902             3.20
3     CC(=O)CC(=O)/C=C1\C(=O)Nc2ccc(Cl)cc21   UniProt P14902             2.28

Batch request: log10 of IC50 per item, same order as input.
1. O=C1Nc2ccccc2/C1=N/Nc1cccc([N+](=O)[O-])c1
2. Cc1ccc(S(=O)(=O)N/N=C2\C(=O)Nc3ccccc32)cc1
3. CCOC(=O)C(C(=O)OCC)=C1C(=O)Nc2ccccc21
4. O=C1Nc2ccccc2/C1=N/Nc1ccccc1C(F)(F)F

1: 3.57; 2: 3.25; 3: 2.97; 4: 3.20

Consider the following items and state reported log10 of IC50 for each.
1. N[C@@H](CC1C(=O)Nc2ccccc21)C(=O)O (stereo partly specified)
2. O=C1Nc2ccccc2/C1=N/c1ccccc1Br
3. CC(=O)N[C@@H](CC1C(=O)Nc2ccccc21)C(=O)O (mixture of isomers)
4. O=C(N[C@@H](CC1C(=O)Nc2ccccc21)C(=O)O)OCc1ccccc1 (stereo partly specified)
5. NCCC1C(=O)Nc2ccccc21 (stereo unspecified)
6. CC(=O)/C=C1\C(=O)Nc2ccccc21
7. CC(=O)CC(=O)CC1(O)C(=O)Nc2ccccc21 (stereo unspecified)

1. 3.53
2. 3.09
3. 2.79
4. 3.11
5. 3.60
6. 3.23
7. 2.65

For every record below, what is its log10 of IC50?
1. CC(=O)CC1(O)C(=O)Nc2ccc(Cl)cc21 (stereo unspecified)
2. NC(=O)[C@@H](N)CC1C(=O)Nc2ccccc21 (stereo partly specified)
3. O=C1Nc2ccccc2C1=NNc1ccccc1
4. O=C(N[C@@H](CC1C(=O)Nc2ccccc21)C(=O)OCc1ccccc1)OCc1ccccc1 (stereo partly specified)
5. N[C@@H](CC1C(=O)Nc2ccccc21)C(=O)OCc1ccccc1 (stereo partly specified)
6. CC(=O)CC(=O)CC1(O)C(=O)Nc2ccc(Cl)cc21 (stereo unspecified)
7. O=C1Nc2ccccc2/C1=N/Nc1ccc(Cl)cc1

3.29
3.92
3.29
3.35
4.13
2.95
2.80

Would you mind giving log10 of IC50 for every compound in the list below?
1. O=C1CCCC(=O)C1C1(O)C(=O)Nc2ccccc21 (stereo unspecified)
2. CC(C)(C)OC(=O)N[C@@H](CC1C(=O)Nc2ccccc21)C(=O)O (stereo partly specified)

1. 3.67
2. 3.29

====

Species on record: Homo sapiens
Assay: Selectivity ratio of IC50 for human TDO to IC50 for human IDO1
readout.type: Ratio IC50
Give bare numbers.

// worked examples, Ratio IC50 included
> print(dat)
                                   compound  measured.result
1  CC(=O)CC(=O)CC1(O)C(=O)Nc2ccccc21 (stereo not drawn)              124
2      O=C1Nc2ccccc2/C1=N/Nc1ccccc1C(F)(F)F               24
3  CC(=O)N[C@@H](CC1C(=O)Nc2ccccc21)C(=O)O (mixture of isomers)              135
4  O=C(N[C@@H](CC1C(=O)Nc2ccccc21)C(=O)O)OCc1ccccc1 (stereo partly drawn)               21
5           CC(=O)/C=C1\C(=O)Nc2ccc(Cl)cc21              152

For every record below, what is its Ratio IC50?
1. O=C1Nc2ccccc2/C1=N/c1ccccc1Br
2. CCOC(=O)C(C(=O)OCC)=C1C(=O)Nc2ccccc21
3. O=C1Nc2ccccc2/C1=N/Nc1cccc(Cl)c1
4. Cc1ccc(S(=O)(=O)N/N=C2\C(=O)Nc3ccccc32)cc1
5. O=C(NCCC1C(=O)Nc2ccccc21)OCc1ccccc1 (stereo not drawn)
6. CC(=O)CC(=O)/C=C1\C(=O)Nc2ccc(Cl)cc21

[37, 76, 31, 30, 25, 210]

Quick request: Ratio IC50 for each listed item, please.
1. N[C@@H](CC1C(=O)Nc2ccccc21)C(=O)O (stereo partly drawn)
2. O=C1Nc2ccccc2/C1=N/Nc1ccc(Cl)cc1

[18, 85]

Sourced from ChEMBL document CHEMBL4261541
